This section presents compounds with their documented viability, T/C values.
system: 843126-344-R-J1-PDC complex spheroid viability; assay: Anticancer human tumor 843126-344-R-J1-PDC patient-derived melanoma cell line growth inhibition [POLQ]; details: second compound 1 µM; first compound 0.1 µM; active compounds read low

compound	viability, T/C, %
C#Cc1c(F)ccc2cc(O)cc(-c3ncc4c(N5CC6CCC(C5)N6)nc(OCC56CCCN5CC(F)C6)nc4c3F)c12 (stereo not drawn) + Nc1ccc(C#CCN(C(=O)Cc2ncc(C(F)(F)F)cc2C(F)(F)F)c2ccc(F)cc2)nn1	91.2
CCc1c2c(nc3ccc(O)cc13)-c1cc3c(c(=O)n1C2)COC(=O)[C@]3(O)CC + Nc1ccc(C#CCN(C(=O)Cc2ncc(C(F)(F)F)cc2C(F)(F)F)c2ccc(F)cc2)nn1	62.8
O=C(c1cc(Cc2n[nH]c(=O)c3ccccc23)ccc1F)N1CCN(C(=O)C2CC2)CC1 + Cc1cccc(N(C)C(=O)C2C(O)CCN2c2nc(C)cc(C(F)(F)F)c2C#N)c1	97.8

====

system: 843126-344-R-J1-PDC complex spheroid viability; assay: Anticancer human tumor 843126-344-R-J1-PDC cell line growth inhibition [POLQ]; details: second compound 10 µM; first compound 0.00316 µM; active compounds read low;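 note: spheroids exposed to drugs for seven days before readout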

molecule	testedOn	viability, T/C
CC[C@@]1(O)C(=O)OCc2c1cc1n(c2=O)Cc2cc3c(CN(C)C)c(O)ccc3nc2-1 + Cc1cccc(N(C)C(=O)C2C(O)CCN2c2nc(C)cc(C(F)(F)F)c2C#N)c1	843126-344-R-J1-PDC complex spheroid viability	74.6%
C=CCn1c(=O)c2cnc(Nc3ccc(N4CCN(C)CC4)cc3)nc2n1-c1cccc(C(C)(C)O)n1 + COC1C(OC(N)=O)C(O)C(Oc2ccc3c(O)c(NC(=O)c4ccc(O)c(CC=C(C)C)c4)c(=O)oc3c2C)OC1(C)C	843126-344-R-J1-PDC complex spheroid viability	89.8%
COc1cccc(OCCCN)c1-c1cc(Nc2cnc(C#N)cn2)n[nH]1 + COC1C(OC(N)=O)C(O)C(Oc2ccc3c(O)c(NC(=O)c4ccc(O)c(CC=C(C)C)c4)c(=O)oc3c2C)OC1(C)C	843126-344-R-J1-PDC complex spheroid viability	72.7%

====

tested on: 843126-344-R-J1-PDC complex spheroid viability; assay: Anticancer human tumor 843126-344-R-J1-PDC cell line growth inhibition [POLQ]; settings: second compound 0.1 µM; first compound 3.16 µM; active = viability on the fitted dose curve at most 10% of control; inactive = the rest;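 note: spheroids exposed to drugs for seven days before readout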
Outcomes: Y for active, N for inactive

compound	testedOn	assignedCategory
COc1cc2cc(C(=O)CCC(=O)O)sc2cc1OC + Nc1ccc(C#CCN(C(=O)Cc2ncc(C(F)(F)F)cc2C(F)(F)F)c2ccc(F)cc2)nn1	843126-344-R-J1-PDC complex spheroid viability	N
CCc1cc2c(N3CCc4c(cc(Cn5ccnc5)cc4-c4cn(C)nc4C(F)(F)F)C3=O)cc(C)nc2c(OC)n1 + COC1C(OC(N)=O)C(O)C(Oc2ccc3c(O)c(NC(=O)c4ccc(O)c(CC=C(C)C)c4)c(=O)oc3c2C)OC1(C)C	843126-344-R-J1-PDC complex spheroid viability	N
CCCS(=O)(=O)Nc1ccc(F)c(C(=O)c2c[nH]c3ncc(-c4ccc(Cl)cc4)cc23)c1F + Nc1ccc(C#CCN(C(=O)Cc2ncc(C(F)(F)F)cc2C(F)(F)F)c2ccc(F)cc2)nn1	843126-344-R-J1-PDC complex spheroid viability	N
CCc1cc2c(N3CCc4c(cc(Cn5ccnc5)cc4-c4cn(C)nc4C(F)(F)F)C3=O)cc(C)nc2c(OC)n1 + Cc1cccc(N(C)C(=O)C2C(O)CCN2c2nc(C)cc(C(F)(F)F)c2C#N)c1	843126-344-R-J1-PDC complex spheroid viability	N
COc1cc2cc(C(=O)CCC(=O)O)sc2cc1OC + Cc1cccc(N(C)C(=O)C2C(O)CCN2c2nc(C)cc(C(F)(F)F)c2C#N)c1	843126-344-R-J1-PDC complex spheroid viability	N
COc1ccc([C@@H](O)c2cc(-c3ncnc4cc(N5CCOCC5)ccc34)c(F)cc2Cl)nn1 + Cc1cccc(N(C)C(=O)C2C(O)CCN2c2nc(C)cc(C(F)(F)F)c2C#N)c1	843126-344-R-J1-PDC complex spheroid viability	N
COc1cccc2c1C(=O)c1c(O)c3c(c(O)c1C2=O)CC(O)(C(=O)CO)CC3OC1CC(N)C(O)C(C)O1 (stereo unspecified) + COC1C(OC(N)=O)C(O)C(Oc2ccc3c(O)c(NC(=O)c4ccc(O)c(CC=C(C)C)c4)c(=O)oc3c2C)OC1(C)C	843126-344-R-J1-PDC complex spheroid viability	Y
COc1cc(C2c3cc4c(cc3C(OC3OC5COC(C)OC5C(O)C3O)C3COC(=O)C23)OCO4)cc(OC)c1O (stereo unspecified) + Nc1ccc(C#CCN(C(=O)Cc2ncc(C(F)(F)F)cc2C(F)(F)F)c2ccc(F)cc2)nn1	843126-344-R-J1-PDC complex spheroid viability	N
CC1COCCN1c1cc(C2(O)CC3CCC(C2)O3)c2cnn(-c3ccn[nH]3)c2n1 (stereo unspecified) + COC1C(OC(N)=O)C(O)C(Oc2ccc3c(O)c(NC(=O)c4ccc(O)c(CC=C(C)C)c4)c(=O)oc3c2C)OC1(C)C	843126-344-R-J1-PDC complex spheroid viability	N
CC1COCCN1c1cc(C2(O)CC3CCC(C2)O3)c2cnn(-c3ccn[nH]3)c2n1 (stereo unspecified) + Cc1cccc(N(C)C(=O)C2C(O)CCN2c2nc(C)cc(C(F)(F)F)c2C#N)c1	843126-344-R-J1-PDC complex spheroid viability	N
COc1cc(C2c3cc4c(cc3C(OC3OC5COC(C)OC5C(O)C3O)C3COC(=O)C23)OCO4)cc(OC)c1O (stereo unspecified) + Cc1cccc(N(C)C(=O)C2C(O)CCN2c2nc(C)cc(C(F)(F)F)c2C#N)c1	843126-344-R-J1-PDC complex spheroid viability	N
CC1COCCN1c1cc(C2(S(C)(=N)=O)CC2)nc(-c2ccnc3[nH]ccc23)n1 (stereo unspecified) + Nc1ccc(C#CCN(C(=O)Cc2ncc(C(F)(F)F)cc2C(F)(F)F)c2ccc(F)cc2)nn1	843126-344-R-J1-PDC complex spheroid viability	N
CC1COCCN1c1cc(C2(O)CC3CCC(C2)O3)c2cnn(-c3ccn[nH]3)c2n1 (stereo unspecified) + Nc1ccc(C#CCN(C(=O)Cc2ncc(C(F)(F)F)cc2C(F)(F)F)c2ccc(F)cc2)nn1	843126-344-R-J1-PDC complex spheroid viability	N
O=C(Nc1ccc(O)c(NS(=O)(=O)c2ccc(F)cc2)c1)c1ccc(-c2ccccc2)cc1 + Cc1cccc(N(C)C(=O)C2C(O)CCN2c2nc(C)cc(C(F)(F)F)c2C#N)c1	843126-344-R-J1-PDC complex spheroid viability	N
CCc1cc2c(N3CCc4c(cc(Cn5ccnc5)cc4-c4cn(C)nc4C(F)(F)F)C3=O)ccnc2c(OC)n1 + Nc1ccc(C#CCN(C(=O)Cc2ncc(C(F)(F)F)cc2C(F)(F)F)c2ccc(F)cc2)nn1	843126-344-R-J1-PDC complex spheroid viability	N
O=c1[nH]cc(F)c(=O)[nH]1 + Cc1cccc(N(C)C(=O)C2C(O)CCN2c2nc(C)cc(C(F)(F)F)c2C#N)c1	843126-344-R-J1-PDC complex spheroid viability	N
CC1COCCN1c1cc(-c2ccnn2C)c2ccnc(-c3ccn[nH]3)c2n1 (stereo unspecified) + COC1C(OC(N)=O)C(O)C(Oc2ccc3c(O)c(NC(=O)c4ccc(O)c(CC=C(C)C)c4)c(=O)oc3c2C)OC1(C)C	843126-344-R-J1-PDC complex spheroid viability	N
Nc1ccn(C2OC(CO)C(O)C2(F)F)c(=O)n1 (stereo unspecified) + Nc1ccc(C#CCN(C(=O)Cc2ncc(C(F)(F)F)cc2C(F)(F)F)c2ccc(F)cc2)nn1	843126-344-R-J1-PDC complex spheroid viability	N
CC1COCCN1c1cc(-c2ccnn2C)c2ccnc(-c3ccn[nH]3)c2n1 (stereo unspecified) + Cc1cccc(N(C)C(=O)C2C(O)CCN2c2nc(C)cc(C(F)(F)F)c2C#N)c1	843126-344-R-J1-PDC complex spheroid viability	N
C#Cc1c(F)ccc2cc(O)cc(-c3ncc4c(N5CC6CCC(C5)N6)nc(OCC56CCCN5CC(F)C6)nc4c3F)c12 (stereo unspecified) + Cc1cccc(N(C)C(=O)C2C(O)CCN2c2nc(C)cc(C(F)(F)F)c2C#N)c1	843126-344-R-J1-PDC complex spheroid viability	N
COc1cccc2c1C(=O)c1c(O)c3c(c(O)c1C2=O)CC(O)(C(=O)CO)CC3OC1CC(N)C(O)C(C)O1 (stereo unspecified) + Cc1cccc(N(C)C(=O)C2C(O)CCN2c2nc(C)cc(C(F)(F)F)c2C#N)c1	843126-344-R-J1-PDC complex spheroid viability	Y

====

system: 843126-344-R-J1-PDC complex spheroid viability; test: Anticancer human tumor 843126-344-R-J1-PDC cell line growth inhibition [POLQ]; conditions: second compound 1 µM; first compound 0.1 µM; active compounds read low;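 note: spheroids exposed to drugs for seven days before readout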
With a cut-off of 90%, any viability, T/C strictly below it is called class 1; any viability, T/C meeting it or above is called class 0.

compound	assignedCategory
O=c1[nH]cc(F)c(=O)[nH]1 + COC1C(OC(N)=O)C(O)C(Oc2ccc3c(O)c(NC(=O)c4ccc(O)c(CC=C(C)C)c4)c(=O)oc3c2C)OC1(C)C	class 1
Cn1ncnc1[C@H]1c2n[nH]c(=O)c3cc(F)cc(c23)N[C@@H]1c1ccc(F)cc1 + COC1C(OC(N)=O)C(O)C(Oc2ccc3c(O)c(NC(=O)c4ccc(O)c(CC=C(C)C)c4)c(=O)oc3c2C)OC1(C)C	class 1
CC1COCCN1c1cc(C2(S(C)(=N)=O)CC2)nc(-c2ccnc3[nH]ccc23)n1 (stereo unspecified) + Nc1ccc(C#CCN(C(=O)Cc2ncc(C(F)(F)F)cc2C(F)(F)F)c2ccc(F)cc2)nn1	class 0
O=C(Nc1ccc(O)c(NS(=O)(=O)c2ccc(F)cc2)c1)c1ccc(-c2ccccc2)cc1 + Nc1ccc(C#CCN(C(=O)Cc2ncc(C(F)(F)F)cc2C(F)(F)F)c2ccc(F)cc2)nn1	class 0
CCc1cc2c(N3CCc4c(cc(Cn5ccnc5)cc4-c4cn(C)nc4C(F)(F)F)C3=O)cc(C)nc2c(OC)n1 + Nc1ccc(C#CCN(C(=O)Cc2ncc(C(F)(F)F)cc2C(F)(F)F)c2ccc(F)cc2)nn1	class 0
CC1COCCN1c1cc(C2(O)CC3CCC(C2)O3)c2cnn(-c3ccn[nH]3)c2n1 (stereo unspecified) + Cc1cccc(N(C)C(=O)C2C(O)CCN2c2nc(C)cc(C(F)(F)F)c2C#N)c1	class 1
COc1cccc2c1C(=O)c1c(O)c3c(c(O)c1C2=O)CC(O)(C(=O)CO)CC3OC1CC(N)C(O)C(C)O1 (stereo unspecified) + COC1C(OC(N)=O)C(O)C(Oc2ccc3c(O)c(NC(=O)c4ccc(O)c(CC=C(C)C)c4)c(=O)oc3c2C)OC1(C)C	class 1
COc1cccc(OCCCN)c1-c1cc(Nc2cnc(C#N)cn2)n[nH]1 + Nc1ccc(C#CCN(C(=O)Cc2ncc(C(F)(F)F)cc2C(F)(F)F)c2ccc(F)cc2)nn1	class 1
Nc1ccn(C2OC(CO)C(O)C2(F)F)c(=O)n1 (stereo unspecified) + Cc1cccc(N(C)C(=O)C2C(O)CCN2c2nc(C)cc(C(F)(F)F)c2C#N)c1	class 1
COc1cc2cc(C(=O)CCC(=O)O)sc2cc1OC + COC1C(OC(N)=O)C(O)C(Oc2ccc3c(O)c(NC(=O)c4ccc(O)c(CC=C(C)C)c4)c(=O)oc3c2C)OC1(C)C	class 0
C#Cc1c(F)ccc2cc(O)cc(-c3ncc4c(N5CC6CCC(C5)N6)nc(OCC56CCCN5CC(F)C6)nc4c3F)c12 (stereo unspecified) + COC1C(OC(N)=O)C(O)C(Oc2ccc3c(O)c(NC(=O)c4ccc(O)c(CC=C(C)C)c4)c(=O)oc3c2C)OC1(C)C	class 0
COc1cc(C2c3cc4c(cc3C(OC3OC5COC(C)OC5C(O)C3O)C3COC(=O)C23)OCO4)cc(OC)c1O (stereo unspecified) + Nc1ccc(C#CCN(C(=O)Cc2ncc(C(F)(F)F)cc2C(F)(F)F)c2ccc(F)cc2)nn1	class 1
COc1ccc([C@@H](O)c2cc(-c3ncnc4cc(N5CCOCC5)ccc34)c(F)cc2Cl)nn1 + Nc1ccc(C#CCN(C(=O)Cc2ncc(C(F)(F)F)cc2C(F)(F)F)c2ccc(F)cc2)nn1	class 0
C=CCn1c(=O)c2cnc(Nc3ccc(N4CCN(C)CC4)cc3)nc2n1-c1cccc(C(C)(C)O)n1 + COC1C(OC(N)=O)C(O)C(Oc2ccc3c(O)c(NC(=O)c4ccc(O)c(CC=C(C)C)c4)c(=O)oc3c2C)OC1(C)C	class 1
CNCc1ccc(-c2[nH]c3cc(F)cc4c3c2CCNC4=O)cc1 + Nc1ccc(C#CCN(C(=O)Cc2ncc(C(F)(F)F)cc2C(F)(F)F)c2ccc(F)cc2)nn1	class 0
CC(C)n1c(=O)n(C)c2cnc3cc(F)c(-c4ccc(OCCCN5CCCCC5)nc4)cc3c21 + Nc1ccc(C#CCN(C(=O)Cc2ncc(C(F)(F)F)cc2C(F)(F)F)c2ccc(F)cc2)nn1	class 1
COc1cc2cc(C(=O)CCC(=O)O)sc2cc1OC + Nc1ccc(C#CCN(C(=O)Cc2ncc(C(F)(F)F)cc2C(F)(F)F)c2ccc(F)cc2)nn1	class 1
C#Cc1c(F)ccc2cc(O)cc(-c3ncc4c(N5CC6CCC(C5)N6)nc(OCC56CCCN5CC(F)C6)nc4c3F)c12 (stereo unspecified) + Cc1cccc(N(C)C(=O)C2C(O)CCN2c2nc(C)cc(C(F)(F)F)c2C#N)c1	class 0
CC(C)n1c(=O)n(C)c2cnc3cc(F)c(-c4ccc(OCCCN5CCCCC5)nc4)cc3c21 + Cc1cccc(N(C)C(=O)C2C(O)CCN2c2nc(C)cc(C(F)(F)F)c2C#N)c1	class 1
